All figures here come from patent US9708302B2.

target: rat M1 (Rattus norvegicus (Rat)); assay: M1 PAM Assay (FLIPR intracellular calcium), rat M1; format: cell-based; details: positive allosteric modulation in presence of EC20 of acetylcholine; second value of cell
Sequence (P08482 whole entry): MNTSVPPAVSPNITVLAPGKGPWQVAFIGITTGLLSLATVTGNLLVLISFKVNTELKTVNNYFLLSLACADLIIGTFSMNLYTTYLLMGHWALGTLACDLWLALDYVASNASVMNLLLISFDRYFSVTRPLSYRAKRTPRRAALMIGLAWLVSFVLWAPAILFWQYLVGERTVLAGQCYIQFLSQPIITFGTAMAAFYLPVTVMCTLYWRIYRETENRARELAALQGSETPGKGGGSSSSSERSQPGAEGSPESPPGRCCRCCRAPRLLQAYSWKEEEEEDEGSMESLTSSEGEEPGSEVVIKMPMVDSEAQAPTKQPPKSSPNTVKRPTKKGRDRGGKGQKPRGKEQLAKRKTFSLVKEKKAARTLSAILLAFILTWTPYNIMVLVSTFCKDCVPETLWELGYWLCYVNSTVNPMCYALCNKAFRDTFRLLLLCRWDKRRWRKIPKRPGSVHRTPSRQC
observable: pEC50
Field pEC50 (float): negative decimal logarithm of the concentration in molar.

Below are worked cases with known answers.
// sample O=C(N[C@H]1CCCC[C@@H]1O)c1cc(Cc2ccc(Cl)nc2)c2ccccc2c1F (racemic) [Example 1] , its pEC50 was 6.86

// sample `Cn1cc(-c2ccc(Cc3cc(C(=O)N[C@@H]4CCOC[C@H]4O)c(F)c4ccccc34)cn2)cn1` , its pEC50 was 7.01

// sample O=C(N[C@H]1CCCC[C@@H]1O)c1cc(Cc2ccc(Cl)nc2)c2ccccc2c1F [Example 3] , its pEC50 was 7.00

Further cases:
// sample O=C(N[C@H]1CCOC[C@@H]1O)c1cc(Cc2ccc(Cl)nc2)c2ccccc2c1F (racemic) , its pEC50 was 6.93

// sample N#Cc1ccc(Cc2cc(C(=O)N[C@H]3CCOC[C@@H]3O)c(F)c3ccccc23)cc1 (racemic) , its pEC50 was 7.15
